Here, each record is paired with measured pEC50 data.
Target: KHK-C expressed in NRK-52E cells (Homo sapiens (Human))
Sequence (P50053 whole entry): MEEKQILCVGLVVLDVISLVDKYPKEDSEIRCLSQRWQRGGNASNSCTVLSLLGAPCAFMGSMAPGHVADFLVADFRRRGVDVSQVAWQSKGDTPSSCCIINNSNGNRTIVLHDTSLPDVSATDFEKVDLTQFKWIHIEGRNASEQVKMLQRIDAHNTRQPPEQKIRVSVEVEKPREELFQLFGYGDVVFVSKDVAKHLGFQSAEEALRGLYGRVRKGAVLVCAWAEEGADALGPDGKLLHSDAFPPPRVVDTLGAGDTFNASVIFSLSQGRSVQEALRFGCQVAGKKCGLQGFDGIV
Assay: KHK-C Cell-based Assay (EC50), NRK CTG, fructose-mediated ATP-depletion
Convention used: pEC50 is expressed as -log10 of the molar concentration.

So the reported pEC50 for "C[C@H]1[C@H](O)CN1c1nc(-c2ccc(C3(N)CC(F)(F)C3)cc2)c2c(n1)C(F)(F)CC2" , on KHK-C expressed in NRK-52E cells (Homo sapiens (Human)), turned out to be 8.13

So the reported pEC50 for "C[C@H]1CCN1c1nc2c(c(-c3ccc4[nH]ncc4c3)n1)CCC2" , on KHK-C expressed in NRK-52E cells (Homo sapiens (Human)), turned out to be 6.68

So the reported pEC50 for "C[C@H]1CCN1c1nc2c(c(-c3ccc(C(N)=O)c(C(F)(F)F)c3)n1)CCC2" , on KHK-C expressed in NRK-52E cells (Homo sapiens (Human)), turned out to be 7.46

So the reported pEC50 for "NC(=O)c1ccc(-c2nc(N3CC[C@@H]3CO)nc3c2CCC3)cc1" , on KHK-C expressed in NRK-52E cells (Homo sapiens (Human)), turned out to be 6.65

So the reported pEC50 for "C[C@H]1[C@H](O)CN1c1nc(-c2ccc3c(c2)CN(S(C)(=O)=O)CC3)c2c(n1)C(F)(F)CC2" , on KHK-C expressed in NRK-52E cells (Homo sapiens (Human)), turned out to be 7.04

So the reported pEC50 for NC(=O)c1ccc(-c2nc(N3CCC34CCOC4)nc3c2CCC3)cc1 (centres unmarked) , on KHK-C expressed in NRK-52E cells (Homo sapiens (Human)), turned out to be 5.48

So the reported pEC50 for "C[C@H]1CCN1c1nc2c(c(-c3ccc4c(c3)C(=O)NC4)n1)CCC2" , on KHK-C expressed in NRK-52E cells (Homo sapiens (Human)), turned out to be 7.25

---

Target: human KHK-A (Homo sapiens (Human))
Assay: KHK Biochemical Assay (IC50), ADP-Glo, KHK-A
Details: ADP-Glo; average of at least two separate assays
REPORTED METRIC: IC50 (nM)
Expressed in nM, but write only the number.

1. C[C@H]1[C@H](O)CN1c1nc2c(c(-c3cccc([C@@H]4C[C@H]4C(=O)O)c3)n1)CCC2 (single isomer, unassigned) [Example 114]    51

Value of IC50 reported for the molecule C[C@H]1CCN1c1nc2c(c(-c3cccc(C(=O)NC4(C(=O)O)CC4)c3)n1)CCC2 [Example 67] is 128

Value of IC50 reported for the molecule C[C@H]1CCN1c1nc2c(c(-c3ccc4c(O)n[nH]c4c3)n1)CCC2 [Example 120] is 46.1

Value of IC50 reported for the molecule C[C@H]1CCN1c1nc2c(c(-c3cccc(C(C)(C)N)c3)n1)CCC2 [Example 190] is 48.7

---

Target: human KHK-C (Homo sapiens (Human), UniProt P50053)
Sequence (P50053 whole entry): as above
Test: KHK Biochemical Assay (IC50), ADP-Glo, KHK-C
Settings: ADP-Glo; average of at least two separate assays
Here, each record is paired with measured IC50 data.
Expressed in nM, but write only the number.

Value of IC50 reported for the molecule C[C@H]1CCN1c1nc2c(c(-c3cccc(C(=O)O)c3)n1)CCC2 [Example 9] is 68.6

---

Here, each record is paired with measured IC50 data.
Target: human KHK-A (Homo sapiens (Human), UniProt P50053)
Sequence (P50053 other isoform, or with tags, fused parts or gaps): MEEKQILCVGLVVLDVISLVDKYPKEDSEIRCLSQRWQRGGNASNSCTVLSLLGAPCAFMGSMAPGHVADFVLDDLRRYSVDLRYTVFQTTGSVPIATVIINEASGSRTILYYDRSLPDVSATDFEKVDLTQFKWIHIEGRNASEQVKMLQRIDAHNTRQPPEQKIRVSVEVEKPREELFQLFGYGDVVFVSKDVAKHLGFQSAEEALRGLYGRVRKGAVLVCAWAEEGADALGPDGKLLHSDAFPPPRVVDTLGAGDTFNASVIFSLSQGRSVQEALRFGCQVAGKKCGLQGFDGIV
Experiment: KHK Biochemical Assay (IC50), ADP-Glo, KHK-A
Conditions: ADP-Glo; average of at least two separate assays

These solved cases illustrate the format of a correct answer.
1) C[C@H]1CCN1c1nc2c(c(-c3ccc4c(c3)CC3C(C(=O)O)C43)n1)CCC2 (stereo partly shown)    114 nM
2) Cc1cc(-c2nc(N3CC[C@@H]3C)nc3c2CCC3)cc2c1C(NS(C)(=O)=O)CC2 (stereo partly shown)    175 nM
3) C[C@H]1CCN1c1nc2c(c(-c3cccc(C(=O)NCCN)c3)n1)CCC2    22.2 nM
4) CC(=O)Nc1ncc(S(=O)(=O)Nc2cccc(-c3nc(N4CC[C@@H]4C)nc4c3CCC4)c2)s1    296 nM

So the reported IC50 for "C[C@H]1CCN1c1nc2c(c(-c3cccc(C(=O)NCC(N)=O)c3)n1)CCC2" , on human KHK-A (Homo sapiens (Human), UniProt P50053), turned out to be 37.8 nM

So the reported IC50 for C[C@H]1CCN1c1nc2c(c(-c3ccc(C(O)C(F)(F)F)cc3)n1)CCC2 (stereo in doubt) , on human KHK-A (Homo sapiens (Human), UniProt P50053), turned out to be 2100 nM

So the reported IC50 for "C[C@H]1CCN1c1nc2c(c(-c3ccccc3)n1)CCOC2" , on human KHK-A (Homo sapiens (Human), UniProt P50053), turned out to be 1150 nM

So the reported IC50 for "C[C@H]1CCN1c1nc2c(c(-c3cnc4c(c3)NCCO4)n1)CCC2" , on human KHK-A (Homo sapiens (Human), UniProt P50053), turned out to be 96.2 nM

So the reported IC50 for "C[C@H]1[C@H](O)CN1c1nc2c(c(-c3ccc(S(N)(=O)=O)cc3)n1)CCC2" , on human KHK-A (Homo sapiens (Human), UniProt P50053), turned out to be 282 nM

So the reported IC50 for "C[C@H]1CCN1c1nc2c(c(-c3cccc(C(=O)NCCNC(=O)OC(C)(C)C)c3)n1)CCC2" , on human KHK-A (Homo sapiens (Human), UniProt P50053), turned out to be 144 nM

So the reported IC50 for "C[C@H]1[C@H](O)CN1c1nc(-c2ccc3c(=O)[nH]ccc3c2)c2c(n1)C(F)(F)CC2" , on human KHK-A (Homo sapiens (Human), UniProt P50053), turned out to be 6 nM

So the reported IC50 for "C[C@H]1CCN1c1nc2c(c(-c3ccccc3CCC(=O)O)n1)CCC2" , on human KHK-A (Homo sapiens (Human), UniProt P50053), turned out to be 5920 nM

So the reported IC50 for C[C@H]1CCN1c1nc(-c2cccc(C(N)=O)c2)c2c(n1)C1CCC2C1 (stereo partly shown) , on human KHK-A (Homo sapiens (Human), UniProt P50053), turned out to be 272 nM

So the reported IC50 for "C[C@H]1CCN1c1nc(-c2ccccc2)c2c(n1)[C@@H]1C[C@@H]1C2" , on human KHK-A (Homo sapiens (Human), UniProt P50053), turned out to be 1310 nM

So the reported IC50 for C[C@H]1CCN1c1nc2c(c(-c3ccc(C(N)C(F)(F)F)cc3)n1)CCC2 (stereo in doubt) , on human KHK-A (Homo sapiens (Human), UniProt P50053), turned out to be > 5000 nM

So the reported IC50 for "C[C@H]1[C@H](O)CN1c1nc(-c2ccc(C3(N)CCOCC3)cc2)c2c(n1)C(F)(F)CC2" , on human KHK-A (Homo sapiens (Human), UniProt P50053), turned out to be 4.8 nM

---

Molecular target: human KHK-C (Homo sapiens (Human), UniProt P50053)
Assay: KHK Biochemical Assay (IC50), ADP-Glo, KHK-C
Conditions: average of at least two separate assays
Just a reminder that ties go to 0.0: only IC50 strictly below 5 nM counts as 1.0.

1) C[C@H]1[C@H](O)CN1c1nc(-c2ccc3c(c2)COC[C@]32CCC(=O)N2)c2c(n1)C(F)(F)CC2 (single isomer, unassigned) [Example 641]    1.0

Query: Is it true that IC50 reported for NC(=O)c1ccc(-c2nc(N3CC(O)[C@@H]3Cc3ccccc3)nc3c2CCC3)cc1 (stereo partly shown) [Example 431] is less than 5 nM?
Result: 0.0

Query: Is it true that IC50 reported for C[C@H]1[C@H](O)CN1c1nc(-c2cccc(N=S(C)(=O)C3CC3)c2)c2c(n1)C(F)(F)CC2 (stereo partly shown) [Example 667] is less than 5 nM?
Result: 0.0

Query: Is it true that IC50 reported for CCN1C(=O)NC2(COc3cc(-c4nc(N5C[C@@H](O)[C@@H]5C)nc5c4CCC5(F)F)ccc32)C1=O (stereo partly shown) [Example 689] is less than 5 nM?
Result: 1.0

---

Target: human KHK-A (Homo sapiens (Human))
Experiment: KHK Biochemical Assay (IC50), ADP-Glo, KHK-A
Conditions: average of at least two separate assays
Here, each record is paired with measured pIC50 data.
Convention used: pIC50 is expressed as -log10 of the molar concentration.

These solved cases illustrate the format of a correct answer.
1. C[C@H]1[C@H](O)CN1c1nc(-c2ccc3c(c2)CC[C@]32NC(=O)NC2=O)c2c(n1)C(F)(F)CC2 [Example 486]    8.77
2. COc1ccc(-c2nc(N3C[C@H](F)[C@@H]3C)nc3c2CCC3(F)F)cc1[S@@](C)(=N)=O [Example 562]    9.52
3. CS(=O)(=O)N[C@H]1COCc2cc(-c3nc(N4CC[C@@H]4C(F)(F)F)nc4c3CCC4(F)F)ccc21 [Example 581]    8.51
4. C[C@H]1[C@H](O)CN1c1nc(-c2ccc3c(c2)COC[C@@]32COC(=O)N2)c2c(n1)C(F)(F)CC2 (single isomer, unassigned) [Example 555]    7.52
5. C[C@H]1[C@H](O)CN1c1nc(-c2ccc3c(c2)C(F)(F)C[C@@H]3NS(C)(=O)=O)c2c(n1)C(F)(F)CC2 (single isomer, unassigned) [Example 634]    7.97
6. C[C@H]1CCN1c1nc2c(c(-c3ccc4c(c3)[C@]3(C[C@H]3C#N)C(=O)N4)n1)CCC2 (mixture of isomers) [Example 410]    7.42

Value of pIC50 reported for the compound NC(=O)c1ccc(-c2nc(N3CCC34CCOC4)nc3c2CCC3)cc1 (centres unmarked) [Example 434] is 5.53

Value of pIC50 reported for the compound COc1ccc(-c2nc(N3C[C@@H](O)[C@@H]3C)nc3c2CCC3(F)F)cc1[S@@](C)(=N)=O (single isomer, unassigned) [Example 495] is 9.15

Value of pIC50 reported for the compound C[C@H]1CCN1c1nc2c(c(-c3ccc4c(c3)[C@]3(C[C@@H]3C(N)=O)C(=O)N4)n1)CCC2 (mixture of isomers) [Example 413] is 7.18

Value of pIC50 reported for the compound C[C@H]1CCN1c1nc2c(c(-c3ccc(CN)s3)n1)CCC2 [Example 459] is 7.95

Value of pIC50 reported for the compound COc1c(C)cc(-c2nc(N3C[C@@H](O)[C@@H]3C)nc3c2CCC3(F)F)cc1S(C)(=N)=O (some centres unmarked) [Example 722] is 8.10

Value of pIC50 reported for the compound NC1(c2ccc(-c3nc(N4CCC4C(F)(F)F)nc4c3CCC4(F)F)cc2)COC1 (centres unmarked) [Example 683] is 8.62

Value of pIC50 reported for the compound C[C@H]1CCN1c1nc2c(c(-c3ccc4c(c3)[C@]3(C[C@H]3C(N)=O)C(=O)N4)n1)CCC2 (mixture of isomers) [Example 412] is 7.24

Value source: patent US12410160B2
